Each recorded value in this set is attributed to ChEMBL document CHEMBL5096221.

Tested on: BXPC-3
Measurement notes: Anti-proliferative activity against human BXPC-3 cells assessed as cell growth inhibition incubated for 72 hrs by MTS assay
Assay type: functional, cell-based
Protocol conditions: BXPC-3, 72 h
Attribute measured: IC50 (nM)

A = Cn1c(C(=O)N2CCN(Cc3ccc(OCC(F)(F)F)cc3)CC2)cc2ccc(Oc3cnc(-c4nc(-c5ccc(Br)cc5)no4)cn3)cc21
B = COc1cccc(-c2noc(-c3cnc(Oc4ccc5cc(C(=O)N6CCN(Cc7ccc(OCC(F)(F)F)cc7)CC6)n(C)c5c4)cn3)n2)c1
C = Cn1c(C(=O)N2CCN(Cc3ccc(OCC(F)(F)F)cc3)CC2)cc2ccc(Oc3cnc(-c4nc(-c5ccc(Cl)cc5)no4)cn3)cc21
[in] Rank the items above by IC50, largest value first. Use the labels to give the ranking in the order requested.
[out] C, A, B
